# tested.system: human FFAR1 (GPR40) (Homo sapiens, UniProt O14842)
# Construct: Flag
# Sequence (O14842 whole entry): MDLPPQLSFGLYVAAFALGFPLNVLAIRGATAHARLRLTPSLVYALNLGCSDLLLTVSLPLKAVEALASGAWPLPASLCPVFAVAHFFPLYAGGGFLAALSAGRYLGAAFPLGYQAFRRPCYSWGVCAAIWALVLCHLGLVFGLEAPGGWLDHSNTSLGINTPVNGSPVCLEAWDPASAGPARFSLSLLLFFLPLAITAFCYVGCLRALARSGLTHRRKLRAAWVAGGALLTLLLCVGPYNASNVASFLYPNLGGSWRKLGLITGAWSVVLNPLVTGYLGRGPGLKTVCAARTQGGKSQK
# test.summary: NFAT-RE-based reporter gene activity assay (Dual-Glo luciferase) for GPR40 agonistic activity in co-transfected HEK293T cells
# measurement.parameters: 4-hour treatment
experimental.readout: EC50

Solved cases below.
- compound: "COc1ccc(F)c(N2CCC(c3oc4cc(CCC(=O)O)ccc4c3-c3cccc(C(C)(C)C)c3)CC2)c1 [Compound 231]"
  experimental.readout: "EC50"
  assay.value: "100 to 500 nM"
- compound: "COc1cccc(N2CCC(c3oc4cc(C(CC(=O)O)C5CC5)ccc4c3C(=O)N3CCCC3)CC2)c1 (stereo not drawn) [Compound 358]"
  experimental.readout: "EC50"
  assay.value: "100 to 500 nM"

We now examine a further compound.
Query: Given the entry COc1cccc(N2CCC(c3oc4cc(C(CC(=O)O)C5CC5)ccc4c3C(=O)NCc3ccccc3)CC2)c1 (stereo not drawn) [Compound 355] , report its measured EC50.
Response: 100 to 500 nM

====

Give measured EC50 for each item. Keep answers brief.
# tested.system: human FFAR1 (GPR40) (Homo sapiens, UniProt O14842)
# Construct: Flag
# test.summary: NFAT-RE-based reporter gene activity assay (Dual-Glo luciferase) for GPR40 agonistic activity in co-transfected HEK293T cells
# measurement.parameters: 4-hour treatment

Guide cases for EC50, answers given:
- compound: "COc1cccc(N2CCC(c3oc4cc([C@@H](CC(=O)O)C5CC5)ccc4c3C(=O)Nc3cc(OC(F)(F)F)ccc3F)CC2)c1"
  EC50: "< 10 nM"
- compound: "COc1cccc(N2CCC(c3oc4cc([C@@H](CC(=O)O)C5CC5)ccc4c3CNC(=O)C(C)(C)C)CC2)c1"
  EC50: "> 500 nM"
- compound: "COc1ccc(F)c(N2CCC(c3oc4cc([C@@H](CC(=O)O)C5CC5)ccc4c3C(=O)Nc3cc(F)ccc3Br)CC2)c1"
  EC50: "≤ 10 nM"
- compound: "COc1ccc(Cl)c(N2CCC(c3oc4cc(C(CC(=O)O)C5CC5)ccc4c3-c3cccc(C(C)(C)C)c3)CC2)c1 (stereo not drawn)"
  EC50: "100 to 500 nM"

For every record below, what is its EC50?
1. COc1cccc(N2CCC(c3oc4cc([C@@H](CC(=O)O)C5CC5)ccc4c3C/C=C/C3CC3)CC2)c1
2. COc1cccc(N2CCC(c3oc4cc([C@@H](CC(=O)O)C5CC5)ccc4c3-c3cc(C)ccn3)CC2)c1

Response:
["100 to 500 nM", "100 to 500 nM"]

Report EC50 for each item below.
1. COc1cccc(N2CCC(c3oc4cc([C@@H](CC(=O)O)C5CC5)ccc4c3C(C)OCC[C@@H](C)CCCC(C)C)CC2)c1 (stereo partly drawn)
2. COc1cccc(N2CCC(c3oc4cc(C(CC(=O)O)C5CC5)ccc4c3-c3cccc(N(CC(C)(C)C)C(C)=O)n3)CC2)c1 (stereo not drawn)
3. COc1cccc(N2CCC(c3oc4cc([C@@H](CC(=O)O)C5CC5)ccc4c3-c3nnc(C(C)(C)C(F)(F)F)o3)CC2)c1

Response:
1. > 500 nM
2. 100 to 500 nM
3. ≤ 10 nM

Please report EC50 for every entry that follows.
1. CC(C)(C)c1ccc(-c2c(C3CCN(c4ccc5c(c4)OCO5)CC3)oc3cc([C@@H](CC(=O)O)C4CC4)ccc23)cc1
2. COc1cccc(N2CCC(c3oc4cc([C@@H](CC(=O)O)C5CC5)ccc4c3-c3ccc(OC(C)C)cc3)CC2)c1
3. CCCCC(C)(C)c1nnc(-c2c(C3CCN(c4cccc(OC)c4)CC3)oc3cc(C(CC(=O)O)C4CC4)ccc23)o1 (stereo not drawn)
4. COc1ccc(F)c(N2CCC(c3oc4cc([C@@H](CC(=O)O)C5CC5)ccc4c3/C=C/C(C)(C)C)CC2)c1
5. COc1cccc(N2CCC(c3oc4cc(C(CC(=O)O)C5CC5)ccc4c3-c3cnn(C(C)(C)CF)c3)CC2)c1 (stereo not drawn)
6. COc1ccc(C(=O)Nc2cccc(C)n2)c(N2CCC(c3oc4cc(C(CC(=O)O)C5CC5)ccc4c3-c3cnn(C(C)(C)C)c3)CC2)c1 (stereo not drawn)

Response:
1: 10 to 100 nM; 2: 10 to 100 nM; 3: 10 to 100 nM; 4: ≤ 10 nM; 5: 100 to 500 nM; 6: 100 to 500 nM
